The measurements presented in this section are drawn from the supplement of paper PMC6555819.

- Test system: RARg homodimer (NR concentration 270 nM)
- experiment-notes: PBM binding z-score (relative to random genomic background probes); higher = stronger binding; sequences stand for … in GC…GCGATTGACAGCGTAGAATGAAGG
Threshold check on PBM binding z-score: at or above 1 gives satisfied, strictly below gives not satisfied.

- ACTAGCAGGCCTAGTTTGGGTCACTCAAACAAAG: not satisfied
- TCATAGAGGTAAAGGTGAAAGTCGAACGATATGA: satisfied
- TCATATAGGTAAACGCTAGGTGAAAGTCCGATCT: not satisfied
- TCATATAGGTAATACAGGTGAAAGGCGGCATCTA: not satisfied
- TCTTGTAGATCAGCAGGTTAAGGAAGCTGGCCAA: not satisfied
- TCTGCTAGGTCAGTAGGTCAGCTAACGAGCTGCC: satisfied
- ACTATTAGTTGAGAAGAGGGCAACCGATAGGTTG: not satisfied
- GGAACGAGGGCAAGTTGATAGCAGAGTTTGATGG: satisfied
- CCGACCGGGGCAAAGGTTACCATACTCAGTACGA: satisfied
- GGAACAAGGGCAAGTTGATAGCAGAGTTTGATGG: satisfied
- CCGACTGGGGCACAAAGGTTACCATACCATCCGG: satisfied
- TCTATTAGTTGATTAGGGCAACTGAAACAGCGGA: not satisfied
- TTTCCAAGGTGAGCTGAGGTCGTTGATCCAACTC: satisfied
- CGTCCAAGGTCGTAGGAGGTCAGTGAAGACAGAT: satisfied
- TCGTGTAGATCAGCAGGTTAAGAAAGCTGGCCAA: not satisfied
- CCTACTGGGCCAAGGCCATTGATCAGTCAAAGCA: not satisfied
- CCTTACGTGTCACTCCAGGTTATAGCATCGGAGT: satisfied
- ATACCAAGGTGAGCGTGAGGTCGTTGATACTAAC: satisfied
- CGAACTAGGACATTGACAGGACAGTGAATAGTAA: not satisfied
- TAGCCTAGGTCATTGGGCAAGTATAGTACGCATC: satisfied
- TCAGACAGGTGAAGGCAACTCAGGTACGCAGTCG: not satisfied
- ATCTCTAGGTCAAGATAGTTCAGTGAATGCAAAT: satisfied
- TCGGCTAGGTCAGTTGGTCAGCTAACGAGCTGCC: satisfied
- TCATATAGGTAAACAGGTTAAAGTCCGTAAGTTA: not satisfied
- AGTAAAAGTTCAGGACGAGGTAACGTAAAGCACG: satisfied
- CGTCCAAGTTCAGAGAGGTCAGTGAATGCCGAGT: satisfied

* * *

- Test system: PPARg:RXRa 270nM:90nM, anti-RXR (NR concentration 270 nM, RXRa partner concentration 90 nM)
- experiment-notes: PBM binding z-score (relative to random genomic background probes); higher = stronger binding; sequences stand for … in GC…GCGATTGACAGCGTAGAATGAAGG
measured-quantity: PBM binding z-score

- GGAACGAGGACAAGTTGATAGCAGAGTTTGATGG: -0.0478
- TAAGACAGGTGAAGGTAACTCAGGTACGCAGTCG: 1.38
- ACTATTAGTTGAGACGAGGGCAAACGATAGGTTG: 0.206
- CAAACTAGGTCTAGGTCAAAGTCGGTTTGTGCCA: 3.82
- TCTAGCAGGCCAGAGGGTCACTCAAGAGGTACGG: 2.72
- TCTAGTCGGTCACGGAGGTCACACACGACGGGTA: 4.97
- TCTGCTAGGTCGGTTGGTCAGCTAACGAGCTGCC: 0.448
- TCTTGTAGATCAGAAGGTTAAGAAAGCTGGCCAA: 2.4
- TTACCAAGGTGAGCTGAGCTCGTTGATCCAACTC: -0.0625
- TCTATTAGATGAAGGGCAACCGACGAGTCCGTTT: 2.01
- CCAGACAGGTGACAGGTAACTCAGTCTGGTACGC: 1.4
- ACTAGCAGGCCAAGGGTCAGTCAAGATTAGTCCG: 6.45
- ATATGTAGGTTAAGGGTAATTCAGGTTGGTTCGC: 7.77
- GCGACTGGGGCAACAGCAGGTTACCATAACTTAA: 1.47
- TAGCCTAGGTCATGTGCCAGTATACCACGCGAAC: 2.86
- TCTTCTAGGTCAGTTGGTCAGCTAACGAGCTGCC: 4.43
- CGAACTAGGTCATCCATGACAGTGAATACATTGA: 6.33
- ACTATTAGTTGACTTAGGGCAAGCGATACGACGC: 0.206
- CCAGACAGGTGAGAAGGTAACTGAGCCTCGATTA: 0.61
- TGACCAAGGTGAGCTGAGGTCGTTGATCCAACTC: 0.767
- TCTTGTAGATCAGCAGGTAAAGAAAGCTGGCCAA: 0.955
- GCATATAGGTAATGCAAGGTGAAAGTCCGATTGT: 1.15
- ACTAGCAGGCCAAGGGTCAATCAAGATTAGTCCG: 7.68
- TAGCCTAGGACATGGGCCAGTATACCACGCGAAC: -0.284
- TCTTGAAGATCAATAGAGGTTAAGAAAGTGCGCT: 1.56
- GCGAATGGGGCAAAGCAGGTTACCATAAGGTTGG: 0.187
